Listed next: entries and their corresponding Anti-PSMA Fab (SEQ ID NOs: 19, 20) signal.
Test target: T1, Anti-PSMA Fab (SEQ ID NOs: 19, 20)
T1 construct: Biotinylated Fab captured on neutravidin coated plates in the phage ELISA; also called 006 PSMA Fab
Protocol details: phage binding ELISA; clonal phage on biotinylated PSMA Fab captured on neutravidin plates, anti-M13 HRP detection
Please give only the number in your answer, with no unit.

Please review the following examples before continuing.
- Binder: "FEKWCTPPWMCSLF [Phage-1772]"
  Observed value: 2.11
- Binder: "LCEWWTSHVDAWCA [Phage-1763]"
  Observed value: 0.575
- Binder: "FVPLCKPAWMCSFV [Phage-1768]"
  Observed value: 2.2
- Binder: "WEKLCTPAWMCVGF [Phage-1764]"
  Observed value: 2.44

Ask: Could you tell me which Anti-PSMA Fab (SEQ ID NOs: 19, 20) signal is on file for EGIRCTPIWMCEGF [Phage-1774] ?
Reply: 2.09

Ask: Look at this binder and give its reported Anti-PSMA Fab (SEQ ID NOs: 19, 20) signal. VGKLCVPEWMCVGL [Phage-1767]
Reply: 2.25

Ask: Entry HCKFHDYHSWYVCY [Phage-1762] : reported Anti-PSMA Fab (SEQ ID NOs: 19, 20) signal = ?
Reply: 2.31

Ask: Any idea what Anti-PSMA Fab (SEQ ID NOs: 19, 20) signal was measured for FEKLCVPKWMCEGI (also called Peptide-220) [Phage-1770] ?
Reply: 2.17

Ask: Please report the recorded Anti-PSMA Fab (SEQ ID NOs: 19, 20) signal for IDKLCIPFWMCENL [Phage-1771] .
Reply: 2.16

Ask: I'd like to know its Anti-PSMA Fab (SEQ ID NOs: 19, 20) signal. The binder in question is DLRLCKPAWMCYFI [Phage-1773]
Reply: 2.11

Ask: Which Anti-PSMA Fab (SEQ ID NOs: 19, 20) signal reading was recorded for the binder VLKWCRPAWMCEVL [Phage-1766] ?
Reply: 2.38

// data source = patent US20260242478A1
